Quick reference: normalized growth of the listed items.
- experimentNotes: chemical genetic growth profiling, strain panel (AID 1159580);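 further: tested at 20 µM; growth read once vehicle control cultures reached saturation at 30 °C; 1 = growth at the plate median or of vehicle wells; lower values mean less growth of the strain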
- appliedConditions: S. cerevisiae deletion strains, growth OD, locus YJR043C, strain POL32, stronger effect = lower value
Among all 5,500 compounds or so, about 2,000 (36%) were called active. About 18% were inconclusive and are not listed. This is one part of the list.
Respond using a number only.

Below, 4 compounds whose answers are already recorded.
compound	normalized growth
C[C@@H]1CC[C@]2(C(=O)O)CC[C@]3(C)C(=CCC4[C@@]5(C)CC[C@H](O)C(C)(C)C5CC[C@]43C)C2[C@H]1C (some centres undefined)	1.06
C[C@H]1[C@H](C)CC[C@]2(CO)CC[C@]3(C)C(=CCC4[C@@]5(C)CC[C@H](O)C(C)(C)C5CC[C@]43C)[C@H]12 (some centres undefined)	1
N#CC(NCc1ccccc1)c1ccc(Cl)c(Cl)c1 (centres undefined)	1.01
CCCC(CC(=O)O)(C(=O)O)c1ccccc1 (centres undefined)	1.01

Record COC(=O)C1Cc2c([nH]c3ccccc23)C2(CCN(C)CC2)N1 (centres undefined) , field normalized growth: 1

Record CC1(C)CC[C@@]2(C(=O)O)C(C1)C1=CCC3[C@@]4(C)CC[C@H](O)C(C)(C)C4CC[C@@]3(C)[C@]1(C)C[C@@H]2O (some centres undefined) , field normalized growth: 1.02

Record COc1cc(C2OC(c3cc(C)ccc3[N+](=O)[O-])=NN2C(C)=O)cc(OC)c1OC (centres undefined) , field normalized growth: 1

Record CNCc1ccccc1 , field normalized growth: 1

Record CC1(C)CC[C@]2(C(=O)O)CC[C@]3(C)C(=CCC4[C@@]5(C)CC[C@@H](O)C(C)(C)C5CC[C@]43C)C2C1 (some centres undefined) , field normalized growth: 1
